Ref: the supplement of paper PMC9170038

Tested on: MS2 coat protein
Assay: apparent KD of MS2 coat protein, switch ON state; designed switch direction (-1 OFF switch, 1 ON switch): -1; higher = weaker reporter binding
Conditions: FMN input: 0 or 200 uM; Eterna round: R93 (includes R88 designs)
MEASUREMENT_LABEL: apparent KD of MS2 coat protein (nM)

sequence_entry="CAUAAGCAAGGAUAUACAUGAGGAUCACCCAUGUAGCUUUGCUUCGUGGGCACAACAUGUAGAAGGUGCGAAAA [Leceedon]" measurement_label="apparent KD of MS2 coat protein" measurement=15
sequence_entry="AUAGGUCGAGGAUAUACAUGAGGAUCACCCAUGUAAAUAAAUAAAUAAAACUCCACAAGUAGAAGGCGAAAUAA [JR_Exc003_Sub201]" measurement_label="apparent KD of MS2 coat protein" measurement=28.1
sequence_entry="AAAAGCAGAGGAUAUACAUAAUUAUGACGAAAGUCAUAAAAACAUGAGGAUCACCCAUGUAGAAGGCUGCAAAA [MOD of Meechl's MS2 Ex2 (MS2 riboswitches - Exlclusion 2)]" measurement_label="apparent KD of MS2 coat protein" measurement=24.9
sequence_entry="AGUUGGCGAGGAUAUACAUGAGGAUCACCCAUGUAAAAUAAAUAAAAAGGGAAAGAAAGUAGAAGGCGCUGACA [73%, Moding Norbert Elias, 10]" measurement_label="apparent KD of MS2 coat protein" measurement=42.4
sequence_entry="AAAAAACAUGAGGAUCACCCAUGUGAGGAUAUGCGAAAAUAAAAUAAAAUAAAUAAAAGCAGAAGGCACAAAAA [Mat - Exclusion 1 - Eli mod - D59]" measurement_label="apparent KD of MS2 coat protein" measurement=41.1
sequence_entry="AAAUGACUAGGAUAUACAUGAGGAUCACCCAUGUGUUAAAAUAAAUACACAAAAGAAAGUAGAAGGAGUCAAAA [Ex 3 May 15]" measurement_label="apparent KD of MS2 coat protein" measurement=22.3

* * *

System: MS2 coat protein
Assay: apparent KD of MS2 coat protein; designed switch direction (-1 OFF switch, 1 ON switch): 1; higher = weaker reporter binding
Details: Eterna round: R95; input ligand: FMN 200 uM
apparent KD of MS2 coat protein: recorded values
MEASUREMENT_LABEL: apparent KD of MS2 coat protein (nM)

sequence_entry="UGGAUCUAGGCUUGCCUGGGUCCAUGUUGACAUGAGGAUCACCCAUGUGUAUUUUUUUUGCUUUUUGUUUGUCAACA [JL A Humble Attempt mod 4] (puzzle: Sensor for hsa-mir-208a)" measurement_label="apparent KD of MS2 coat protein" units_of_measure=nM measurement=31.5
sequence_entry="GUAAAACAUGAGGAUCACCCAUGUCAUCUAAGUCGAGGAUAUGGGAAUUAAUUAAUUAAACCAGAAGGCGAAAUUG [Mat - Same State 1 - D97] (puzzle: Same State 1)" measurement_label="apparent KD of MS2 coat protein" units_of_measure=nM measurement=44.6
sequence_entry="AGUCCAGCCUGAGCUGGACAAAAGCAUGUACAUGAGGAUCACCCAUGUCAUGUACAAGCUUUUUGUUCGUCUUAAUA [Zipper 49 - 13] (puzzle: Sensor for hsa-mir-208a)" measurement_label="apparent KD of MS2 coat protein" units_of_measure=nM measurement=258
sequence_entry="GCAGUACUAGCAGAGGAUAUGUCGGUAACGACAUGAGGAUCACCCAUGUGUACGAAAGUGCUCAGACAGAAGGCUGAGUACUGCU [Same State 2 - Hyphema v.1] (puzzle: Same State 2)" measurement_label="apparent KD of MS2 coat protein" units_of_measure=nM measurement=17.8
sequence_entry="GUUAAACAUGAGGAUCACCCAUGUAAUAUAAUGGGAGGAUAUCUGAAUUAAUUAAAUUAAGGAGAAGGCCUAAUUG [Mat - Same State 1 - Mod of Eli - D52] (puzzle: Same State 1)" measurement_label="apparent KD of MS2 coat protein" units_of_measure=nM measurement=42
sequence_entry="GGCUAUCGGCGUACCGAUAGCUGGUAUGUACAUGAGGAUCACCCAUGUCAUGUACAGGCUUGUUGCUCGUCUUAUUG [JL-shm-2.38 JL mod] (puzzle: Sensor for hsa-mir-208a)" measurement_label="apparent KD of MS2 coat protein" units_of_measure=nM measurement=144
sequence_entry="AGUCCAGCCUGAGCUGGACAAAAGCAUGUACAUGAGGAUCACCCAUGUUCAUGUAUAAGCUUUUUGCUCGUCUUAAA [Zipper 52 - 11] (puzzle: Sensor for hsa-mir-208a)" measurement_label="apparent KD of MS2 coat protein" units_of_measure=nM measurement=18.5
sequence_entry="UUUUUUUUGACGAGACAAGCUUUUUGAUCACAUGAGGAUCACCCAUGUCUCGUCUUAUUUUUUUUUUUUUUUUUUUU [BA Sensor hsa-mir-208a - 2 - 2] (puzzle: Sensor for hsa-mir-208a)" measurement_label="apparent KD of MS2 coat protein" units_of_measure=nM measurement=17.4
sequence_entry="UAGAGAGGAAGCGAGGAUAUCGUGGGAGGGACAUGAGGAUCACCCAUGUAGGAUGUUGAGAGGAACGAGAAGGCGCAGGAAAGAA [JR_SS2_Sub075] (puzzle: Same State 2)" measurement_label="apparent KD of MS2 coat protein" units_of_measure=nM measurement=67.1
sequence_entry="GCCCAUAGUAUAUGGGUACAAGCUUUUUGACAUGAGGAUCACCCAUGUACUCGUCUUAUGUGCAGUCCGUAGACUGC [JL-shm-2.18 Brourd mod] (puzzle: Sensor for hsa-mir-208a)" measurement_label="apparent KD of MS2 coat protein" units_of_measure=nM measurement=61.9

* * *

Tested on: MS2 coat protein
Assay: apparent KD of MS2 coat protein; higher = weaker reporter binding
Conditions: Eterna round: R107; input ligand: arginine 13.2 mM
MEASUREMENT_LABEL: apparent KD of MS2 coat protein (nM)

sequence_entry="AGAUGUAGCGGAAGGAGCGUCAUGAGGAUCACCCAUGGCUCCCGUUGUGGGAGUUCCUUAGGUCAGGUAGGUCGCCGUUACGUCA [Omei Arg B SS B v6]" measurement=79.7
sequence_entry="AACCGAGGCUAUCCUCUAAGAAAAUGUGAUACCAGAAUAAUUUUAUUCCCUUGGCAGCAUGACAUGAGGAUCACCCAUGUGUCUU [SSTheo A #6]" measurement=73.6
sequence_entry="CUCCCGUGGUCGGCCGCCACUGGAGGCCUCGCGCGACAUGAGGAUCACCCAUGUUGGCCCGGCGUCAGGACCGGGAUCGCGUGAG [#1 Same State - Tryptophan B Attempt #9 (HarryS)]" measurement=11.8
sequence_entry=GGAUAGGACACGGCCGCCACUACCUAGGAUACUAGCAACAUUUGGGUACACGAGGAUCACCCGUGUAGGACCGGGUGUCCUAUCG measurement=32.6
sequence_entry="GGAUAGGACAGAAGGAGCGGCAUGGCAGAAACUGCAAUCCUCCUACACGAGGAUCACCCGUGUCAGGUAGGUCGCUGUCCUAUCG [ArgXB 13 #Zipper #MS2Left #StaticStem #Blueprint]" measurement=18.5
sequence_entry="UAAAAUAAAAGGGUGAAGGUAUAAACAGAUACCAGCCAGAUAACUGGCCCUUGGCAGCUGAAUGACAUGAGGAUCACCCAUGUCU [TheoAS 21 #OpenEnded #Ms2Late]" measurement=13.1
sequence_entry="UAUAACAUGAGGAUCACCCAUGUAAGUGAUACCAGAUAAAUAAUAGUCCCUUGGCAGCAUAUUGGGAAAGUGUAUAAUAUAUAUU [Same State - Theophylline A (Freestyle 2)]" measurement=50.8
sequence_entry="CAAGAAGUAACUGAUACCAGUGUACUGACAUGAGGAUCACCCAUGUUGGGUUUUGUUGUACACCCUUGGCAGCAGAAUCUUCUUG [AstrosExyTheB#22]" measurement=46.9
sequence_entry="GGACUAACCAGAAGGAGCGACACAGCAGAAACUGCAAAUCCUCCGCACGAGGAUCACCCGUGUCAGGUAGGUCGCUGGUUAGUCG [ArgBX 28]" measurement=37.4
sequence_entry="AAGCUGCCAAGAAGGUGAUCCAAAUGUGAUACCAGCUAGGAAACUAGCCCUUGGCAGCACAUGAGGAUCACCCAUGUAAUAAUAA [(T)'-(M)'-(T1)-(T2)-(M1)-(M2)_Design1_2/19/17]" measurement=37.7
sequence_entry="GAGUCCGCGGCGGCCGCCACUCGCGGCGCCACAUGGCGCCGGGACAUGAGGAUCACCCAUGUCCCGAGGACCGGGCCGAUCCUCA [Same State Typrtophan B GF4]" measurement=16.6

* * *

Test system: MS2 coat protein
Assay: apparent KD of MS2 coat protein; designed switch direction (-1 OFF switch, 1 ON switch): 1; higher = weaker reporter binding
Conditions: Eterna round: R95; input ligand: none
MEASUREMENT_LABEL: apparent KD of MS2 coat protein (nM)

sequence_entry="UGGAUCUAGGCUUGCCUGGGUCCAUGUUGACAUGAGGAUCACCCAUGUGUAUUUUUUUUGCUUUUUGUUUGUCAACA [JL A Humble Attempt mod 4] (puzzle: Sensor for hsa-mir-208a)" units_of_measure=nM measurement=34
sequence_entry="AGUCCAGCCUGAGCUGGACAAAAGCAUGUACAUGAGGAUCACCCAUGUUCAUGUACAAGCUUUUUGCUCGUCUUAGG [salish99_208a_r3_062] (puzzle: Sensor for hsa-mir-208a)" units_of_measure=nM measurement=686
sequence_entry="CGUUCAUACUCAGGACGGAGAGUAGAGGAACAUGAGGAUCACCCAUGUAUGAGCUUUUUGCUCGUCAUUAACAGUAG [JR_SHM208a_Sub012] (puzzle: Sensor for hsa-mir-208a)" units_of_measure=nM measurement=81.2
